System: ATPase activity endogenous to L929 cell lysate
Assay: Detergent inhibition of ATPase endogenous to L929 cell lysate (ATP remaining by luciferase luminescence, 22° C.)
Type: biochemical
Conditions: 0.1% detergent, 222 min
Overview of recorded Average Relative Light Unit Values for various molecules
Output spec: scalar in rlu, unitless text.

CCCCCCCCCCCC[N+](C)(C)CCCS(=O)(=O)[O-] [Sulfobetaine 3-10] :: 446.29

Request: What measured Average Relative Light Unit Values goes with CCCCCCCCCCCCOS(=O)(=O)[O-].[Na+] [SDS, Sodium dodecyl sulfate] ?
Result: 0.26

Request: Now try CCCCCCCCCCCC[N+](C)(C)C.[Br-] [DTAB, dodecyltrimethylammonium bromide] .
Result: 1950.95

Request: Now try C[C@H](CCC(=O)N(CCCNC(=O)[C@H](O)[C@@H](O)[C@H](O)[C@H](O)CO)CCCNC(=O)[C@H](O)[C@@H](O)[C@H](O)[C@H](O)CO)[C@H]1CC[C@H]2[C@@H]3[C@H](O)C[C@@H]4C[C@H](O)CC[C@]4(C)[C@H]3C[C@H](O)[C@]12C [BIGCHAP, N,N-bis(3-D-Gluconamidopropyl)cholamide] .
Result: 634.92

Request: Now try C[C@H](CCC(=O)NCCC[N+](C)(C)CC(O)CS(=O)(=O)[O-])[C@H]1CC[C@H]2[C@@H]3[C@H](O)C[C@@H]4C[C@H](O)CC[C@]4(C)[C@H]3C[C@H](O)[C@]12C (stereo partly drawn) [CHAPSO] .
Result: 558.69

Request: Now try CCCCCCCCCCCCCCCC[N+](C)(C)C.[Br-] [CTAB, Cetyltrimethylammonium bromide] .
Result: 1248.51

Request: Now try C[C@H](CCC(=O)[O-])[C@H]1CC[C@H]2[C@@H]3CC[C@@H]4C[C@H](O)CC[C@]4(C)[C@H]3C[C@H](O)[C@]12C.[Na+] [Deoxycholate, sodium deoxycholate] .
Result: 1028.42

Request: Now try CCCCCCCCCCCC[N+](C)(C)Cc1ccccc1.[Br-] [BDDABr, Benzyldimethyldodecylammonium bromide] .
Result: 2366.49

Request: Now try C[C@H](CCC(=O)NCCC[N+](C)(C)CCCS(=O)(=O)[O-])[C@H]1CC[C@H]2[C@@H]3[C@H](O)C[C@@H]4C[C@H](O)CC[C@]4(C)[C@H]3C[C@H](O)[C@]12C [CHAPS] .
Result: 448.96
